Below, each entry is listed with its recorded GI50.
system: SNB-75; assay: NCI tumour cell line growth inhibition, 48 h
Calls of active or inactive are those of the source. Rule as the data show it: active = GI50 up to about 1.1 µM and inactive = higher.

Consider the reported GI50 for these compounds:
compound	GI50
COc1cc(C)cc2c1c(=O)c1ccccc1n2C	41.7 µM (inactive)
SC1=NNC2(C(S)=N1)c1ccccc1-c1ccccc12	> 10 µM (inactive)
CCN(CC)CCNc1ccc2nnn3c4ccc(C)cc4c(=O)c1c23	10.8 µM (inactive)

Please report the recorded GI50 for COc1cc2c(cc1OC)C(CC(=O)NN=C(C)C)NCC2 (stereo not given) .
> 100 µM (inactive)

Please report the recorded GI50 for COc1ccc(/C=C2\C(=O)NC(=O)c3ccccc32)cc1OC .
37.4 µM (inactive)

Please report the recorded GI50 for COc1cc2c(c(OC)c1OC)-c1ccc(SC)c(=O)cc1[C@@H](NCc1cccc([N+](=O)[O-])c1)CC2 .
11.1 µM (inactive)

Please report the recorded GI50 for Cn1c(=O)c2sc3cc4c(cc3c2c2ccccc21)sc1c(=O)n(C)c2ccccc2c14 .
12.9 µM (inactive)

Please report the recorded GI50 for CN(C)Cc1c[nH]c2ncnc(O)c12 .
33.3 µM (inactive)

Please report the recorded GI50 for O=C(NCCCn1ccnc1[N+](=O)[O-])C(=O)NCCCn1ccnc1[N+](=O)[O-] .
> 100 µM (inactive)

Please report the recorded GI50 for CC1OC(OC2C(OC3CCC4(C)C(CCC5(C)C4CC=C4C6CC(C)(C)CCC6(C(=O)O)CCC45C)C3(C)CO)OCC(O)C2O)C(O)C(O)C1O (stereo not given) .
14.2 µM (inactive)
